B1: RAD51 (parent)
chain: APKKELINIKGISEAKADKILAEA

variants of: B1; experiment: protein stability index of a GFP-peptide fusion (GPS, HEK-293T) (PSI 1-6); higher = more stable; conditions: c terminus: a fixed tail appended;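 note: lentivirally expressed fusions sorted by FACS into six bins by GFP to DsRed ratio, PSI derived from sequencing read proportions per bin multiplied by bin number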
readoutKind: protein stability index
Lab note: record the figure alone, no unit after it.

Some entries whose results are on file:
APTKELINIKGISEAKADKILAEA = 4.97
APKKELINIKGISEAKACKILAEA = 3.36

Qu. # get_value(readout='protein stability index', item= APKKKLINIKGISEAKADKILAEA )
Ans. 4

Qu. Then APKKELINIKGISEAKAEKILAEA ?
Ans. 3.83

Qu. Then APKKELINIKGISEQKADKILAEA ?
Ans. 4.58

Qu. Then APKKELINIKGIAEAKADKILAEA ?
Ans. 4.97

Qu. Then APKKELINIGGISEAKADKILAEA ?
Ans. 5.08
